Reported MDR pEC50 (−log EC50) values are given for each entry in this list.
- target entity: HIV strain MDR (L100I, K103N, Y181C, E138G, V179I, L2214F, V278V/I and A327A/V in HIV reverse transcriptase)
- assay info: microbe, parasite or virus in culture
- Type: cell-based, HIV-1
- applied conditions: MDR HIV strain (multiple RT mutations); MT4 LTR-EGFP cells; three days after infection
Write the value as a bare number.

[[record]]
molecule = "C=CCNCc1cc(Nc2c(C)cc(C=CC#N)cc2C)nc(Nc2ccc(C#N)cc2)n1 (mixture of isomers) [Compound 24]"
experimental_readout = "MDR pEC50 (−log EC50)"
test_result = 5.75

[[record]]
molecule = "Cc1cc(C=CC#N)cc(C)c1Nc1cc(CNCCc2ccccn2)nc(Nc2ccc(C#N)cc2)n1 (mixture of isomers) [Compound 20]"
experimental_readout = "MDR pEC50 (−log EC50)"
test_result = 5.30

[[record]]
molecule = "Cc1cc(C=CC#N)cc(C)c1Nc1cc(CNCc2ccco2)nc(Nc2ccc(C#N)cc2)n1 (mixture of isomers) [Compound 26]"
experimental_readout = "MDR pEC50 (−log EC50)"
test_result = 5.57


Next molecule, please.
q: Record request: MDR pEC50 (−log EC50) value, item Cc1cc(C=CC#N)cc(C)c1Nc1cc(CN(C)CC#N)nc(Nc2ccc(C#N)cc2)n1 [Compound 21]
a: 5.70

----------
- Test system: HIV strain IIIB (wild type)
- assay info: microbe, parasite or virus in culture
- applied conditions: Human immunodeficiency virus 1, IIIB, 72 h, read-out: IIIB pEC50 (−log EC50) (converted)
experimental readout: EC50 (nM)
Provide only the numeric value, understood in nM.

Example entries and their recorded answers appear below.
[[record]]
molecule = "Cc1cc(/C=C/C#N)cc(C)c1Nc1cc(C(=O)NCCF)nc(Nc2ccc(C#N)cc2)n1 [Compound 5]"
target_entity = "HIV strain IIIB (wild type)"
test_result = 1.58

[[record]]
molecule = "Cc1cc(/C=C/C#N)cc(C)c1Nc1cc(CNCc2cccnc2)nc(Nc2ccc(C#N)cc2)n1 [Compound 27]"
target_entity = "HIV strain IIIB (wild type)"
test_result = 3.8

[[record]]
molecule = "Cc1cc(/C=C/C#N)cc(C)c1Nc1cc(C(O)c2nccs2)nc(Nc2ccc(C#N)cc2)n1 (centres unmarked) [Compound 11]"
target_entity = "HIV strain IIIB (wild type)"
test_result = 1.82

[[record]]
molecule = "COc1ccccc1C(O)c1cc(Nc2c(C)cc(/C=C/C#N)cc2C)nc(Nc2ccc(C#N)cc2)n1 (centres unmarked) [Compound 3]"
target_entity = "HIV strain IIIB (wild type)"
test_result = 7.24

[[record]]
molecule = "Cc1cc(/C=C/C#N)cc(C)c1Nc1cc(-c2cccnc2)nc(Nc2ccc(C#N)cc2)n1 [Compound 1]"
target_entity = "HIV strain IIIB (wild type)"
test_result = 3.47

[[record]]
molecule = "Cc1cc(/C=C/C#N)cc(C)c1Nc1cc(/C=N/O)nc(Nc2ccc(C#N)cc2)n1 [Compound 34]"
target_entity = "HIV strain IIIB (wild type)"
test_result = 3.98

[[record]]
molecule = "Cc1cc(/C=C/C#N)cc(C)c1Nc1cc(C(=O)NCc2ccncc2)nc(Nc2ccc(C#N)cc2)n1 [Compound 7]"
target_entity = "HIV strain IIIB (wild type)"
test_result = 4.17

[[record]]
molecule = "Cc1cc(/C=C/C#N)cc(C)c1Nc1cc(C(=O)NCc2ccco2)nc(Nc2ccc(C#N)cc2)n1 [Compound 8]"
target_entity = "HIV strain IIIB (wild type)"
test_result = 5.5

[[record]]
molecule = "COCCNC(=O)c1cc(Nc2c(C)cc(/C=C/C#N)cc2C)nc(Nc2ccc(C#N)cc2)n1 [Compound 4]"
target_entity = "HIV strain IIIB (wild type)"
test_result = 3.09

[[record]]
molecule = "Cc1cc(/C=C/C#N)cc(C)c1Nc1cc(C(=O)c2nccs2)nc(Nc2ccc(C#N)cc2)n1 [Compound 10]"
target_entity = "HIV strain IIIB (wild type)"
test_result = 2.82


Next molecule, please.
q: Record request: EC50 value, item Cc1cc(/C=C/C#N)cc(C)c1Nc1cc(C(=O)NCCC#N)nc(Nc2ccc(C#N)cc2)n1 [Compound 6]
a: 8.91
